Attribution: patent US10328062B2

# Tested on: SNU-5
# protocol_notes: 72 hour cancer cell line viability assay (CellTiter-Glo)
# Type: cell-based, Human
# experimental_setup: Homo sapiens, SNU-5, 72 h
observable: pIC50
Give bare numbers, as −log10 of the molar value.

According to the records, this molecule COCCOc1cnc2ccn([C@H](C)c3nnc4c(F)cc(-c5cnn(C)c5)cn34)c(=O)c2c1 [Compound M] displays pIC50 of 8.52

---

# protocol_notes: 28-day rat toxicology study
# experimental_setup: in vivo
observable: Cmax (ng/mL)
Answers are plain numbers, in ng/mL.

According to the records, this compound COCCOc1cnc2ccn([C@H](C)c3nnc4c(F)cc(-c5cnn(C)c5)cn34)c(=O)c2c1 displays Cmax of 12300

---

# System: NCI-H1573
# protocol_notes: 72 hour cancer cell line viability assay (CellTiter-Glo)
# Type: cell-based
# experimental_setup: Homo sapiens; NCI-H1573, NSCLC; MET copy number High, focal Yes; 72 hour viability; read-out: IC50
# Protocol: Human cancer cell lines were purchased from ATCC, JCRB, Sigma Aldrich or DSMZ. All cell lines were propagated in growth media per the suppliers' recommendation and maintained in 5% CO2 and 37° C. Cancer cell line viability assays were carried out using the CellTiter-Glo Luminescent Cell Viability Assay from Promega (Madison, Wis.). […] Plates were then read using an Envision plate reader on luminescent setting. […]
observable: IC50

According to the records, this molecule COCCOc1cnc2ccn([C@H](C)c3nnc4c(F)cc(-c5cnn(C)c5)cn34)c(=O)c2c1 displays IC50 of > 3000 nM

---

# protocol_notes: Phase 1 Study 20101132 preliminary PK analysis
# experimental_setup: human, in vivo, oral; cohort 3 (100 mg) after 28 days of dosing; read-out: human mean trough concentration
observable: concentration at 28 days (ng/mL)
One number for each entry, in ng/mL.

According to the records, this compound COCCOc1cnc2ccn([C@H](C)c3nnc4c(F)cc(-c5cnn(C)c5)cn34)c(=O)c2c1 [Compound M] displays concentration at 28 days of 131

---

# protocol_notes: 28-day rat toxicology study
# experimental_setup: in vivo
observable: AUC(0-t) (ng·h/mL)
Give bare numbers, in ng·h/mL.

According to the records, this molecule COCCOc1cnc2ccn([C@H](C)c3nnc4c(F)cc(-c5cnn(C)c5)cn34)c(=O)c2c1 displays AUC(0-t) of 82400

---

# System: HCC1395
# protocol_notes: 72 hour cancer cell line viability assay (CellTiter-Glo)
# Type: cell-based
# experimental_setup: Homo sapiens; HCC1395, breast; MET copy number Low, focal No; 72 hour viability
pIC50: −log10 of the molar value.
observable: pIC50

According to the records, this molecule COCCOc1cnc2ccn([C@H](C)c3nnc4c(F)cc(-c5cnn(C)c5)cn34)c(=O)c2c1 [Compound M] displays pIC50 of < 5.52

---

# Test system: G-361
# protocol_notes: 72 hour cancer cell line viability assay (CellTiter-Glo)
# Type: cell-based
# experimental_setup: Homo sapiens; G-361, Melanoma; MET copy number Low, focal No; 72 hour viability
observable: IC50

According to the records, this compound COCCOc1cnc2ccn([C@H](C)c3nnc4c(F)cc(-c5cnn(C)c5)cn34)c(=O)c2c1 [Compound M] displays IC50 of > 3 µM

---

# Tested on: Malme-3M
# protocol_notes: 72 hour cancer cell line viability assay (CellTiter-Glo)
# Assay type: cell-based
# experimental_setup: Homo sapiens, Melanoma, MET copy number Low, focal No, 72 hour viability
# Protocol: Human cancer cell lines were purchased from ATCC, JCRB, Sigma Aldrich or DSMZ. All cell lines were propagated in growth media per the suppliers' recommendation and maintained in 5% CO2 and 37° C. Cancer cell line viability assays were carried out using the CellTiter-Glo Luminescent Cell Viability Assay from Promega (Madison, Wis.). […] Plates were then read using an Envision plate reader on luminescent setting. […]
pIC50: −log10 of the molar value.
observable: pIC50

Item COCCOc1cnc2ccn([C@H](C)c3nnc4c(F)cc(-c5cnn(C)c5)cn34)c(=O)c2c1 [Compound M] was tested on Malme-3M; the reported pIC50 is < 5.52

---

# protocol_notes: Phase 1 Study 20101132 preliminary PK analysis
# experimental_setup: human, in vivo; 24 subjects, daily oral doses of up to 200 mg; as of 20 Aug. 2012; read-out: Mean estimates of elimination half-life
observable: half-life

According to the records, this compound COCCOc1cnc2ccn([C@H](C)c3nnc4c(F)cc(-c5cnn(C)c5)cn34)c(=O)c2c1 displays half-life of 4.6 to 6.9 h

---

# Tested on: MKN-45
# protocol_notes: 72 hour cancer cell line viability assay (CellTiter-Glo)
# Format: cell-based
# experimental_setup: Homo sapiens; MKN-45, Gastric; MET copy number High, focal Yes; 72 hour viability
observable: pIC50
One number for each entry, as −log10 of the molar value.

According to the records, this compound COCCOc1cnc2ccn([C@H](C)c3nnc4c(F)cc(-c5cnn(C)c5)cn34)c(=O)c2c1 displays pIC50 of 8.05

---

# protocol_notes: Phase 1 Study 20101132 preliminary PK analysis
# experimental_setup: human, in vivo, oral; 43 subjects, once daily doses of 25 to 400 mg, tablet formulation; read-out: mean estimates of T1/2,z
observable: half-life

According to the records, this compound COCCOc1cnc2ccn([C@H](C)c3nnc4c(F)cc(-c5cnn(C)c5)cn34)c(=O)c2c1 displays half-life of 4.6 to 7.4 h
